Would you kindly list shrunken log2 fold change for each of these sequences?
- Test system: Escherichia coli TOP10;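 also: peptides expressed intracellularly from a pBAD plasmid library in pooled LB shake-flask culture, induced with 0.3% L-arabinose, DNA abundance read by NGS, three biological replicates, DESeq2 with apeglm shrinkage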
- test-details: shrunken log2 fold change of peptide-encoding DNA abundance (4.5 h post-induction vs induction); higher = less antimicrobial activity (less host growth inhibition)
- applied-conditions: time post-induction: 4.5 h; library: site-saturation at positions 5, 18, 19, 20
Kindly provide the number alone.

Request: Record request: shrunken log2 fold change value, item `RRIRNRPPRLPRPRPRPKGEPRP`
Response: -0.00804

Request: Given `RRIRCRPPRLPRPRPRPGGAPRP` , state its recorded shrunken log2 fold change.
Response: 0.462

Request: Using the record for `RRIRQRPPRLPRPRPRPSYGPRP` , report its shrunken log2 fold change.
Response: -0.188

Request: Need shrunken log2 fold change of `RRIRARPPRLPRPRPRPNSAPRP` , thanks.
Response: 0.00853

Request: Please report the recorded shrunken log2 fold change for `RRIRARPPRLPRPRPRPKSHPRP` .
Response: -0.184

Request: # lookup: shrunken log2 fold change of `RRIRERPPRLPRPRPRPTVLPRP`
Response: -0.0263

Request: Item `RRIRERPPRLPRPRPRPFQVPRP` has what recorded shrunken log2 fold change?
Response: -0.212

Request: Would you mind telling me what shrunken log2 fold change value was observed for `RRIRRRPPRLPRPRPRPSFFPRP` ?
Response: 0.0112

Request: I would be grateful if you could share the reported shrunken log2 fold change for `RRIRIRPPRLPRPRPRPSHHPRP` .
Response: -0.941

Request: Given the entry `RRIRGRPPRLPRPRPRPFQKPRP` , report its measured shrunken log2 fold change.
Response: -0.0668

Request: Name the reported shrunken log2 fold change value associated with the sequence `RRIRNRPPRLPRPRPRPPQEPRP`
Response: -0.0479

Request: Dear colleague, I am looking for the recorded shrunken log2 fold change of the following sequence: `RRIRGRPPRLPRPRPRPEYPPRP`
Response: 0.77

Request: What shrunken log2 fold change value was documented for this sequence, `RRIRIRPPRLPRPRPRPWFTPRP` ?
Response: -0.563

Request: shrunken log2 fold change for `RRIRMRPPRLPRPRPRPEMKPRP` ?
Response: 2.5

Request: Entry `RRIRGRPPRLPRPRPRPRTYPRP` has what shrunken log2 fold change?
Response: 0.0193

Request: Recorded shrunken log2 fold change of `RRIRKRPPRLPRPRPRPVQSPRP` , please.
Response: 0.00205

Request: Consider the sequence `RRIRPRPPRLPRPRPRPFTFPRP` and give its measured shrunken log2 fold change.
Response: -0.189

Request: Using the record for `RRIRHRPPRLPRPRPRPNAIPRP` , report its shrunken log2 fold change.
Response: 0.0158

Request: Find the recorded shrunken log2 fold change belonging to `RRIRPRPPRLPRPRPRPAHFPRP` and report it.
Response: 0.111

Request: Entry under review: `RRIRWRPPRLPRPRPRPYGCPRP` . Reported shrunken log2 fold change?
Response: -0.189

Request: I have this sequence here, `RRIRPRPPRLPRPRPRPGSIPRP` , and I need its recorded shrunken log2 fold change.
Response: -0.261

Request: shrunken log2 fold change for `RRIRFRPPRLPRPRPRPNPRPRP` ?
Response: 0.427

Request: Entry under review: `RRIRDRPPRLPRPRPRPEIVPRP` . Reported shrunken log2 fold change?
Response: 0.048

Request: What measured shrunken log2 fold change goes with `RRIRRRPPRLPRPRPRPPDKPRP` ?
Response: 0.303

Request: // lookup shrunken log2 fold change for `RRIRARPPRLPRPRPRPPQYPRP`
Response: 0.33

Request: // query shrunken log2 fold change value for entry `RRIRCRPPRLPRPRPRPSWTPRP`
Response: -0.532

Request: Sample `RRIRGRPPRLPRPRPRPHNWPRP` — what was its shrunken log2 fold change?
Response: 0.18

Request: Which measured shrunken log2 fold change value corresponds to `RRIRQRPPRLPRPRPRPRWEPRP` ?
Response: 0.0653

Request: Please report the recorded shrunken log2 fold change for `RRIRYRPPRLPRPRPRPEPFPRP` .
Response: 0.0898

Request: Please give the measured shrunken log2 fold change for this sequence: `RRIRGRPPRLPRPRPRPIASPRP`
Response: 0.524

Request: Would you mind telling me what shrunken log2 fold change value was observed for `RRIRGRPPRLPRPRPRPPGPPRP` ?
Response: 0.821

Request: Please give the measured shrunken log2 fold change for this sequence: `RRIRFRPPRLPRPRPRPCINPRP`
Response: -0.0523
